Origin of the recorded values: PubChem BioAssay AID1159580

assay.comment: chemical genetic growth profiling, strain panel (AID 1159580);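 note: tested at 20 µM; growth read once vehicle control cultures reached saturation at 30 °C; 1 = growth at the plate median or of vehicle wells; lower values mean less growth of the strain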
details: S. cerevisiae deletion strains, growth OD, locus YER155C, strain BEM2, stronger effect = lower value
Among all 5,500 compounds or so, about 2,000 (36%) were called active. Not shown: some 18% with an inconclusive outcome. The list shows a part of the results. Where a SMILES comes first, the peptide text is derived from it. Bridges are numbered along the chain shown (N, C = ends). [ ]: non-standard residue; d: D form. The star is where a group is joined. ξ: configuration not given here. ξDab(CH2SO3H) = NC(CCNCS(=O)(=O)O)C(=O)O; Heptanoyl(6-Me) = CC(C)CCCCC(=O)*; Dab = NCC[CH](N)C(=O)O
This section presents molecules with their documented normalized growth values.
The answer should be a number; do not append a unit.

The cases that follow already have their normalized growth on record.
[[record]]
molecule = "O=c1oc2cc(O)ccc2s1"
attribute_measured = "normalized growth"
measured = 0.973

[[record]]
molecule = "CNC(=O)O/N=C\\C(C)(C)SC"
attribute_measured = "normalized growth"
measured = 0.998

[[record]]
molecule = "CCC(C)C1NC(=O)C(CCNCS(=O)(=O)O)NC(=O)C(NC(=O)C(CCNCS(=O)(=O)O)NC(=O)C(NC(=O)C(CCNCS(=O)(=O)O)NC(=O)CCCCC(C)C)C(C)O)CCNC(=O)C(C(C)O)NC(=O)C(CCNCS(=O)(=O)O)NC(=O)C(CCNCS(=O)(=O)O)NC(=O)C(C(C)CC)NC1=O (stereo unspecified) ({Heptanoyl(6-Me)}-[ξDab(CH2SO3H)]T[ξDab(CH2SO3H)][Dab][ξDab(CH2SO3H)]II[ξDab(CH2SO3H)][ξDab(CH2SO3H)]T; lactam 4-C; configuration not given here)"
attribute_measured = "normalized growth"
measured = 0.984

[[record]]
molecule = "COc1cccc(OC)c1OCCNCC1COc2ccccc2O1 (stereo unspecified)"
attribute_measured = "normalized growth"
measured = 1.01

[[record]]
molecule = "COC1=C[C@@H]2[C@@H]3Cc4ccc(OC)c(O)c4[C@]2(CCN3C)CC1=O"
attribute_measured = "normalized growth"
measured = 1


Turning now to a further molecule:
Give the measured normalized growth of C#C[C@]1(O)CCC2C3CCC4=CC(=O)CC[C@@H]4C3CC[C@@]21CC (stereo partly specified) .
0.99

###

assay.comment: chemical genetic growth profiling, strain panel (AID 1159580)
details: S. cerevisiae deletion strains, growth OD, locus YPL055C, strain LGE1, stronger effect = lower value
In all, about 5,500 compounds went through this assay and about 2,000 (36%) were called active. Inconclusive results (about 18%) are left out. The list shows a part of the results. Where a SMILES comes first, the peptide text is derived from it. The star is where a group is joined. For = O=C*
This section presents compounds with their documented normalized growth values.

The cases that follow already have their normalized growth on record.
[[record]]
compound = "CCN1CCC[C@H]1CNC(=O)c1cc(S(N)(=O)=O)ccc1OC"
measured = "1.01 (inactive)"

[[record]]
compound = "CCOC(=O)c1nc(-c2ccccc2)sc1C(=O)OCC"
measured = "0.979 (inactive)"

[[record]]
compound = "COc1ccc(-c2n[nH]c(=S)n2-c2cccc(OC)c2)cc1"
measured = "0.994 (inactive)"

[[record]]
compound = "Cc1nc(-c2nnc(Sc3ccc(C(F)(F)F)cc3[N+](=O)[O-])n2C)cs1"
measured = "1.02 (inactive)"

[[record]]
compound = "O=C(O)c1ccc(N=Cc2ccc3c(c2)OCO3)cc1"
measured = "0.984 (inactive)"


Turning now to a further compound:
Give the measured normalized growth of CSCCC(NC=O)C(=O)NC(Cc1ccccc1)C(=O)O (stereo not drawn) (For-Met-Phe-OH; configuration not given here) .
0.997 (inactive)

###

assay.comment: chemical genetic growth profiling, strain panel (AID 1159580);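 note: tested at 20 µM; growth read once vehicle control cultures reached saturation at 30 °C; 1 = growth at the plate median or of vehicle wells; lower values mean less growth of the strain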
details: S. cerevisiae deletion strains, growth OD, locus YNL298W, strain CLA4 (second series), stronger effect = lower value
Hit rate of the full screen: of about 5,500 compounds, about 2,000 (36%) were called active. Another 18% or so got no clear call; they are omitted. Some of the results follow.
attribute.measured: normalized growth
The answer should be a number; do not append a unit.

[[record]]
molecule = "FC(F)(F)c1cnc(N2CCN(C(=S)Nc3ccccc3)CC2)c(Cl)c1"
attribute_measured = "normalized growth"
measured = 0.976


Give the measured normalized growth of c1cc2c(cc1N=C1SCC3CCCCN13)OCO2 (stereo not given) .
0.974

Quick one: CC12CCC3C4CCC(=O)C=C4CCC3C1CCC2=O (stereo not given)
1.01

Quick one: Cc1noc(C)c1-c1nc(-c2cc(C(F)(F)F)cc(C(F)(F)F)c2)no1
1

Quick one: COC(=O)C1Cc2c([nH]c3ccccc23)C2(CCN(C)CC2)N1 (stereo not given)
1.02

###

assay.comment: chemical genetic growth profiling, strain panel (AID 1159580);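 note: tested at 20 µM; growth read once vehicle control cultures reached saturation at 30 °C; 1 = growth at the plate median or of vehicle wells; lower values mean less growth of the strain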
details: S. cerevisiae deletion strains, growth OD, locus YEL061C, strain CIN8, stronger effect = lower value
The whole screen tested about 5,500 compounds, of which about 2,000 (36%) were called active. Not shown: some 18% with an inconclusive outcome. The list shows a part of the results.
attribute.measured: normalized growth
The answer should be a number; do not append a unit.

The cases that follow already have their normalized growth on record.
[[record]]
compound = "CCCCCCCCCCCC[C@H](C(=O)O)[C@@H](C)C(=O)O"
attribute_measured = "normalized growth"
measured = 0.988

[[record]]
compound = "C[C@]12CCC(=O)C=C1CCC1C2[C@@H](O)C[C@@]2(C)C1CC[C@]2(O)C(=O)CO (some centres undefined)"
attribute_measured = "normalized growth"
measured = 1.01

[[record]]
compound = "CS/C(N)=N\\N=C/c1c(F)cccc1Cl"
attribute_measured = "normalized growth"
measured = 1


Turning now to a further compound:
Give the measured normalized growth of C#C[C@]1(O)CCC2C3CCC4=C(CCC(=O)C4)C3CC[C@@]21C (some centres undefined) .
1.02

###

assay.comment: chemical genetic growth profiling, strain panel (AID 1159580);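 note: tested at 20 µM; growth read once vehicle control cultures reached saturation at 30 °C; 1 = growth at the plate median or of vehicle wells; lower values mean less growth of the strain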
details: S. cerevisiae deletion strains, growth OD, locus YLR418C, strain cdc73, stronger effect = lower value
Screen size: about 5,500 compounds; about 2,000 (36%) were called active. About 18% were inconclusive and are not listed. The list shows a part of the results. Where a SMILES comes first, the peptide text is derived from it. The star is where a group is joined. For = O=C*
// class assignment uses normalized growth with these ranges: lo: < 0.9; mid: ≥ 0.9 and < 1; hi: ≥ 1

[[record]]
compound = "C[C@@H]1OC(O[C@H]2C(O[C@H]3CC[C@@]4(C)C(CC[C@]5(C)C4CC=C4C6CC(C)(C)CC[C@]6(C(=O)O)CC[C@]45C)[C@]3(C)CO)OC[C@H](O)[C@@H]2O)[C@H](O)[C@H](O)[C@H]1O (some centres undefined)"
category = "lo"

[[record]]
compound = "C#C[C@]1(OC(C)=O)CCC2C3CCC4=CC(=O)CC[C@@H]4C3CC[C@@]21C (some centres undefined)"
category = "lo"

[[record]]
compound = "Fc1ccc(C(c2ccccc2)(c2ccccc2F)n2ccnc2)cc1 (centres undefined)"
category = "lo"

[[record]]
compound = "CC(=O)NC(C(=O)O)C(C)(C)SN=O (centres undefined)"
category = "hi"

[[record]]
compound = "Cc1cc(C(C)(C)C)c(O)c(C(C)(C)C)c1"
category = "lo"

[[record]]
compound = "COc1cc(N)c(Cl)cc1C(=O)NC1CCN(Cc2ccccc2)CC1"
category = "mid"


Hi, small favor: classify C[C@@H]1OC(O[C@H]2[C@H](OC(=O)[C@]34CCC(C)(C)CC3C3=CCC5[C@@]6(C)CC[C@H](OC7O[C@@H](C)[C@H](O[C@@H]8OC[C@@H](O)[C@H](O)[C@H]8O)[C@@H](O)[C@H]7O)C(C)(C)C6CC[C@@]5(C)[C@]3(C)CC4O)OC[C@H](O)[C@H]2O)[C@H](O)[C@H](O)[C@H]1O[C@@H]1O[C@H](CO)[C@@H](O)[C@H](O)[C@H]1O (some centres undefined) by its normalized growth when you get a moment.
lo

Quick one: Nc1c2ccccc2nc2ccccc12 (tested in a mixture with another compound)
lo

Quick one: N[C@H](C(=O)O)[C@@H]1CC(Cl)=NO1
lo

Quick one: Cc1cn([C@H]2C[C@H](N=[N+]=[N-])[C@@H](CO)O2)c(=O)[nH]c1=O
hi

Quick one: CC(C)=CCCC1(C)C=Cc2c(O)c3c(c(CC=C(C)C)c2O1)OC12C(=CC4CC1C(C)(C)OC2(C/C=C(/C)C(=O)O)C4=O)C3=O (centres undefined)
lo

Quick one: Cc1ccnc(NS(=O)(=O)c2ccc(N)cc2)n1
hi

Quick one: COC(=O)C[C@H]1C(C)(C)C2(O)OC34CC2C(=O)[C@]1(C)C3CC[C@]1(C)C4=CC(=O)O[C@H]1c1ccoc1 (some centres undefined)
hi

Quick one: NC12CC3CC(CC(C3)C1)C2
hi

Quick one: Clc1ccccc1C(c1ccccc1)(c1ccccc1)n1ccnc1
lo

Quick one: O=c1oc2cc(O)ccc2s1
mid

Quick one: OC(CCN1CCCCC1)(c1ccccc1)C1CCCCC1 (centres undefined)
mid

Quick one: CC(C)=CCCC1(C)C=Cc2c(O)c3c(c(CC=C(C)C)c2O1)OC12C(=CC4CC1C(C)(C)OC2(C/C=C(\C)C(N)=O)C4=O)C3=O (centres undefined)
lo

Quick one: CSCCC(NC=O)C(=O)NC(Cc1ccccc1)C(=O)O (stereo not drawn) (For-Met-Phe-OH; configuration not given here)
hi

Quick one: OC(CCN1CCCC1)(c1ccccc1)C1CCCCC1 (centres undefined)
mid

Quick one: C#C[C@]1(O)CCC2C3CCC4=CC(=O)CC[C@@H]4C3CC[C@@]21CC (some centres undefined)
hi
